Test system: Saccharomyces cerevisiae;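 further: PSI is a weighted mean of sequencing reads over stability bins, variants kept only with over 10 reads, mCherry proximal and sfGFP distal, peptide attached via GGGS linker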
Experiment: protein stability index of tFT-peptide fusion (C-terminal peptide) (PSI (0-1 scale)); higher = more stable (slower turnover)
Settings: genetic background: wild type; temperature: 30 C
Class membership depends on protein stability index alone; the intervals are A (below 0.6), B (0.6 to below 0.7), C (0.7 or more)

Which class holds "HFLLAFMLCFGQ" ?
A

Which class holds "GGGAPADSGPGG" ?
B

Which class holds "EINSIEQESGTT" ?
B

Which class holds "GSDEVGTGWGRL" ?
B

Which class holds "HLIQPDPRASNN" ?
C

Which class holds "PSNPTPLTLLLF" ?
B

Which class holds "VIYERDSLRGGI" ?
C

Which class holds "APPPSLHCLRLP" ?
C

Which class holds "FGVQTFIGPTIV" ?
B

Which class holds "VVSSFVCLLRRG" ?
B

Which class holds "LSFLLLLGCFGS" ?
A

Which class holds "PPLPPSPPCPPA" ?
B

Which class holds "AWGRWGGGSRVE" ?
B

Which class holds "CFVLVVCIPVMV" ?
A

Which class holds "VGFFGMGVLPEG" ?
C

Which class holds "PRDTTIPLVLGF" ?
B

Which class holds "SVFSFCLCVGVV" ?
A

Which class holds "GGSFRLLAVVFP" ?
B

Which class holds "LCVGFISFCFCL" ?
A

Which class holds "HLILWLFFVIVF" ?
A

Which class holds "AQAEGLYRGTAD" ?
B

Which class holds "ALCEIWQSLLLA" ?
A

Which class holds "VHVMSPPPALPV" ?
B

Which class holds "LLGRSPSPTRPT" ?
B

Which class holds "KTAKSEEPILYR" ?
C

Which class holds "PHLLRRPPTQRH" ?
B

Which class holds "GIVVTCLRSRWD" ?
B
